- test-name: BET inhibitor-based combinations targeting novel dependencies in MECOM-rearranged (r) AML: HNT-34 cell line (AID 2202234); note: nearly all actives have a fitted effect of over 35% in size
- recorded-conditions: HNT-34 AML viability, CellTiter-Glo luminescence, 48 h; series mostly up to 46 µM
Inconclusive results are not listed. The source made the active and inactive calls. Calls come from the whole dose curve; as a rule, active = well fitted inhibition curve with a large enough effect; inconclusive = small, poorly fitted or top-dose-only effect; inactive = no such curve, though single readings can be large or run the other way.
Labels: active, inactive

{"columns": ["smiles-entry", "group"],
 "data": [
  ["CC(C)(C)C(=O)N1N=CC[C@H]1c1ccccc1", "inactive"],
  ["COc1cc2c(cc1O)CCN[C@]21CS[C@@H]2c3c(OC(C)=O)c(C)c4c(c3[C@H](COC1=O)N1[C@@H]2[C@H]2c3c(cc(C)c(OC)c3O)C[C@@H]([C@@H]1O)N2C)OCO4", "active"],
  ["Cc1ccc(Nc2ncc3c(n2)N(C)C(=O)N(c2cc(NC(=O)c4cccc(C(F)(F)F)c4)ccc2C)C3)cn1", "active"],
  ["CNc1nc(-c2ccc3c(N)n[nH]c3c2)cc(N2C[C@@H](C(=O)NC3CCCCC3)CC[C@H]2C)n1", "active"]
]}

====

- test-name: BET inhibitor-based combinations targeting novel dependencies in MECOM-rearranged (r) AML: MV-4-11 cell line (AID 2202233); note: nearly all actives have a fitted effect of over 45% in size
- recorded-conditions: MV-4-11 AML viability, CellTiter-Glo luminescence, 48 h; series mostly up to 46 µM
Inconclusive results are not listed. Calls of active or inactive are those of the source. The call rests on the fitted dose curve; in most records, active means well fitted inhibition curve with a large enough effect; inconclusive means small, poorly fitted or top-dose-only effect; inactive means no such curve, though single readings can be large or run the other way.
Labels: Yes (active), No (inactive)

{"columns": ["compound", "group"],
 "data": [
  ["NC(CO)(CO)CCc1ccc(Sc2cccc(OCc3ccccc3)c2)cc1Cl", "Yes"],
  ["COC1=C(OC)C(=O)C(C/C=C(\\C)CC/C=C(\\C)CC/C=C(\\C)CC/C=C(/C)CC/C=C(\\C)CC/C=C(\\C)CC/C=C(\\C)CC/C=C(\\C)CC/C=C(\\C)CCC=C(C)C)=C(C)C1=O", "No"],
  ["COCCn1c2c([n+](Cc3cnccn3)c1C)C(=O)c1ccccc1C2=O", "Yes"],
  ["C[C@@H]1CC2C3C[C@H](F)C4=CC(=O)C=C[C@]4(C)[C@@]3(F)[C@@H](O)C[C@]2(C)[C@@]1(OC(=O)c1ccco1)C(=O)SCF (stereo partly drawn)", "Yes"],
  ["CN[C@H]1CN(c2ccc3c(=O)c(C(=O)O)cn(-c4nccs4)c3n2)C[C@@H]1OC", "Yes"],
  ["Cc1ccc(C)c(OCCCC(C)(C)C(=O)O)c1", "No"],
  ["CS(=O)(=O)Nc1cc2occ(NC=O)c(=O)c2cc1Oc1ccccc1", "No"],
  ["CN(C)CCCN=c1c2ccccc2n(C)c2[nH]c(=O)n(C)c(=O)c12", "Yes"],
  ["COC(=O)/C=C/C(=O)OC", "No"],
  ["Cc1nnn(C)c1-c1cnc2c3ccc(C(C)(C)O)cc3n([C@H](c3ccccc3)C3CCOCC3)c2c1", "Yes"],
  ["C=C[C@H]1CN2CCC1C[C@@H]2C(O)c1ccnc2ccc(OC)cc12 (stereo partly drawn)", "Yes"],
  ["C[C@H]1CNC(=O)c2cnn3ccc(nc23)N[C@H](C)c2cc(F)ccc2O1", "Yes"],
  ["Clc1ccc(COC(Cn2ccnc2)c2ccc(Cl)cc2Cl)cc1 (stereo not drawn)", "Yes"],
  ["C=CCNc1c(O)cc2c(O)c1C[C@@H](C)C[C@H](OC)[C@H](O)[C@@H](C)/C=C(/C)[C@H](OC(N)=O)[C@@H](OC)/C=C\\C=C(\\C)C(=O)N2", "Yes"],
  ["NCC(=O)Nc1cncc(-c2nn3c(=O)cc(N4CCNCC4)nc3s2)c1", "No"],
  ["Cc1nc(-c2cn3c(n2)-c2ccc(-c4cnn(C(C)(C)C(N)=O)c4)cc2OCC3)n(C(C)C)n1", "Yes"],
  ["CN[C@@H]1C[C@H]2O[C@@](C)([C@@H]1OC)n1c3ccccc3c3c4c(c5c6ccccc6n2c5c31)C(=O)N[C@H]4O", "Yes"],
  ["CCNCCS(=O)(=O)NC[C@@]1(c2ccccc2)SC(NC(=O)C(C)(C)C)=NN1C(=O)C(C)(C)C", "Yes"]
]}
